- assayComment: Pharmacokinetics in uninfected rats
- Format: in vivo, rat
- particulars: male, Sprague-Dawley, rat; 25 mg/kg oral (nominal), plasma; read-out: Cmax
assayReadout: Cmax (µg/mL)

| molSmiles | displayUnit | readoutValue |
| --- | --- | --- |
| CC1(C)OB(O)c2cc(NC(=O)c3ccc(F)cc3C(F)(F)F)ccc21 | µg/mL | 18.2 |

---

- assayComment: Steady-state pharmacokinetics in T. brucei-infected mice
- Format: in vivo, mouse
- particulars: Swiss Webster, mouse, brain; 25 mg/kg oral, 7 daily doses, infected mice; read-out: AUC0-inf in brain tissue

| compound | displayUnit | AUC(0-inf) |
| --- | --- | --- |
| CC1(C)OB(O)c2cc(NC(=O)c3ccc(F)cc3C(F)(F)F)ccc21 [SCYX-7158] | ng·h/mL | 81500 |

---

- assayComment: Plasma protein binding by rapid equilibrium dialysis
- Format: in vitro ADME
- particulars: mouse, mouse plasma at ∼15 µg/mL (Cmax at steady-state), read-out: unbound fraction (fu)
- Description: Binding to human or mouse plasma proteins or mouse brain homogenate was determined by rapid equilibrium dialysis (RED) (Pierce, Rockford, IL) using a 48-well plate-based format according to the manufacturer's instructions. Briefly, test compound at the required concentrations was added to fresh human or mouse plasma (Bioreclamation, Liverpool, NY) or freshly prepared mouse brain homogenate. […] Values for unbound and bound fractions and mass balance were calculated. […]
assayReadout: fraction unbound at 4 h

| molSmiles | readoutValue |
| --- | --- |
| CC1(C)OB(O)c2cc(NC(=O)c3ccc(F)cc3C(F)(F)F)ccc21 | 0.032 |

---

- assayComment: Plasma protein binding by rapid equilibrium dialysis
- Assay type: in vitro ADME
- particulars: human plasma, 50 µg/mL

| molSmiles | fraction unbound at 4 h, 50 µg/mL |
| --- | --- |
| CC1(C)OB(O)c2cc(NC(=O)c3ccc(F)cc3C(F)(F)F)ccc21 | 0.055 |

---

- assayComment: Metabolic stability in liver microsomal and S9 fractions
- Assay type: in vitro ADME, rodents, cynomolgus monkey and humans
- particulars: CD-1 (mouse), Sprague-Dawley (rat), beagle (dog), cynomolgus monkey, human, liver microsomes and liver S9 fractions, all species, read-out: intrinsic clearance
assayReadout: microsomal CLint at 1 µM

| molSmiles | assayReadout | readoutValue |
| --- | --- | --- |
| CC1(C)OB(O)c2cc(NC(=O)c3ccc(F)cc3C(F)(F)F)ccc21 | microsomal CLint at 1 µM | < 5 µL/min/mg |

---

- assayComment: Aqueous solubility
- Type: physicochemical
- particulars: pH 7.4 PBS
assayReadout: solubility (µM)

| compound | readoutValue |
| --- | --- |
| CC1(C)OB(O)c2cc(NC(=O)c3ccc(F)cc3C(F)(F)F)ccc21 [SCYX-7158] | 25 |

---

- assayComment: Pharmacokinetics in uninfected mice
- Format: in vivo, mouse
- particulars: male, CD-1, mouse; 26 mg/kg oral, plasma; read-out: Cmax

| molSmiles | Cmax / ng/mL |
| --- | --- |
| CC1(C)OB(O)c2cc(NC(=O)c3ccc(F)cc3C(F)(F)F)ccc21 | 9800 |

---

- assayComment: Pharmacokinetics in uninfected mice
- Assay type: in vivo, mouse
- particulars: male, CD-1, mouse; 13.4 mg/kg oral, plasma; read-out: AUC0–24 h
assayReadout: AUC(0-t) (ng·h/mL)

| molSmiles | readoutValue |
| --- | --- |
| CC1(C)OB(O)c2cc(NC(=O)c3ccc(F)cc3C(F)(F)F)ccc21 | 82000 |
